tested on: RPMI-8226; test: Cytotoxicity against human RPMI-8226 cells assessed as reduction in cell viability measured after 96 hrs in presence of TNF-alpha by CellTiter-Glo luminescent assay; type: functional, cell-based; details: RPMI-8226, 96 h
Each entry below carries its recorded IC50.

smiles | IC50
CN[C@@H](C)C(=O)N[C@H](C(=O)N1C[C@@H](Oc2cccc(OCCCCC(=O)N[C@H](C(=O)N3C[C@@H](O)C[C@H]3C(=O)NCc3ccc(-c4scnc4C)cc3)C(C)(C)C)c2)C[C@H]1C(=O)N[C@@H]1CCCc2ccccc21)C1CCCCC1 | > 5 µM

We next turn to a different compound, shown below.
**Query** Give IC50 for `Cc1ncsc1-c1ccc(CNC(=O)[C@@H]2C[C@@H](O)CN2C(=O)[C@@H](NC(=O)C2(C#N)CC2)C(C)(C)C)cc1`
**Result** > 10 µM

###

tested on: DB; experiment: Cytotoxicity against human DB cells assessed as reduction in cell viability measured after 96 hrs in presence of TNF-alpha by CellTiter-Glo luminescent assay; assay type: functional, cell-based
pIC50: −log10 of the molar value.
measurement_kind: pIC50

**Query** State its pIC50: `Cc1ncsc1-c1ccc(CNC(=O)[C@@H]2C[C@@H](O)CN2C(=O)[C@@H](NC(=O)C2(C#N)CC2)C(C)(C)C)cc1`
**Result** < 5.00
